- target under test: SRCA (Homo sapiens)
- Construct: purchased in-house DSF kinase panel (SGC-style construct names; the trailing letter is the construct ID)
- Sequence (P12931 254-536): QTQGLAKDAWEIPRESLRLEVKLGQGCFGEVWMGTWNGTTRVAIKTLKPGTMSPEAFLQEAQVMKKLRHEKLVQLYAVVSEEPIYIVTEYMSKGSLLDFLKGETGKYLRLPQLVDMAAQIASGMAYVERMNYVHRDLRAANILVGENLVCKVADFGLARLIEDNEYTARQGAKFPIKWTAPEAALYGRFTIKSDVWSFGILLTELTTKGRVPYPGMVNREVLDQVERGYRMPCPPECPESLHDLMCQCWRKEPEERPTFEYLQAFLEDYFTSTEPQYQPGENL
- experiment: DSF Tm panel
- Assay type: binding
- measurement conditions: 10 μM compound
Record Satisfied whenever ΔTm at 10 µM is at 2 °C or higher; record Not satisfied when lower.

Illustrative cases are given below, each with its answer.
# chemical string, group label
rows = [
    ("O=C(NCc1ccccc1C(F)(F)F)Nc1ccc2cc1OCCOCCNc1ccn3ncc-2c3n1", "Satisfied"),
    ("O=C(NCc1ccc(Cl)cc1)Nc1ccc2cc1OCCOCCNc1ccn3ncc-2c3n1", "Satisfied"),
    ("COc1cccc(CNC(=O)Nc2ccc3cc2OCCOCCNc2ccn4ncc-3c4n2)c1", "Satisfied"),
    ("O=C(NCc1ccc(C(F)(F)F)cc1)Nc1ccc2cc1OCCOCCNc1ccn3ncc-2c3n1", "Satisfied"),
    ("Cc1cc(Br)ccc1CNC(=O)Nc1ccc2cc1OCCOCCNc1ccn3ncc-2c3n1", "Not satisfied"),
]

INPUT: Decide: ΔTm at 10 µM of `O=C(NCc1ccccc1Cl)Nc1ccc2cc1OCCOCCNc1ccn3ncc-2c3n1` >= 2 °C?
OUTPUT: Not satisfied

INPUT: Another molecule: `COc1ccc(CNC(=O)Nc2ccc3cc2OCCOCCNc2ccn4ncc-3c4n2)cc1`
OUTPUT: Satisfied

INPUT: Same read-out for `Cc1cc(Cl)ccc1CNC(=O)Nc1ccc2cc1OCCOCCNc1ccn3ncc-2c3n1` ?
OUTPUT: Not satisfied

INPUT: And `COc1ccc(CNC(=O)Nc2ccc3cc2OCCOCCNc2ccn4ncc-3c4n2)cc1F` ?
OUTPUT: Satisfied

INPUT: Likewise for `O=C(NCc1ccc(Cl)cc1Cl)Nc1ccc2cc1OCCOCCNc1ccn3ncc-2c3n1` ?
OUTPUT: Not satisfied

INPUT: Ok, now `O=C(NCc1cccc(Cl)c1)Nc1ccc2cc1OCCOCCNc1ccn3ncc-2c3n1`
OUTPUT: Satisfied

INPUT: Try `C[C@H](NC(=O)Nc1ccc2cc1OCCOCCNc1ccn3ncc-2c3n1)c1ccccc1` next.
OUTPUT: Not satisfied

INPUT: Next molecule up: `O=C(NCc1ccc(Cl)cc1F)Nc1ccc2cc1OCCOCCNc1ccn3ncc-2c3n1`
OUTPUT: Satisfied

INPUT: Another molecule: `CN1CCN(C(=O)Nc2ccc3cc2OCCOCCNc2ccn4ncc-3c4n2)CC1`
OUTPUT: Not satisfied

INPUT: Request: `COc1cc(CNC(=O)Nc2ccc3cc2OCCOCCNc2ccn4ncc-3c4n2)ccc1F`
OUTPUT: Satisfied

INPUT: Now this one: `Cc1ccc(F)cc1CNC(=O)Nc1ccc2cc1OCCOCCNc1ccn3ncc-2c3n1`
OUTPUT: Satisfied

INPUT: Consider next the molecule `O=C(NCc1ccccc1)Nc1ccc2cc1OCCOCCNc1ccn3ncc-2c3n1` in the same way.
OUTPUT: Satisfied

###

Catalogue of molecules with associated ΔTm at 10 µM
- target under test: BMX (BMXA) (Homo sapiens)
- Construct: purchased in-house DSF kinase panel (SGC-style construct names; the trailing letter is the construct ID)
- Sequence (P51813 411-675): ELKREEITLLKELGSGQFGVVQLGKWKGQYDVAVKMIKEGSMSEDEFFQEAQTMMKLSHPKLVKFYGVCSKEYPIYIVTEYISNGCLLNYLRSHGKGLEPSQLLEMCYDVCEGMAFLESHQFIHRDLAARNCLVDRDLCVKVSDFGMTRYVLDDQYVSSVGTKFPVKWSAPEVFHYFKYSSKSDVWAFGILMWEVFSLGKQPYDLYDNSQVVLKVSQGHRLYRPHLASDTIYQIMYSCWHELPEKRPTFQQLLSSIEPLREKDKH
- experiment: DSF Tm panel
- Format: binding
- measurement conditions: 10 μM compound
- Method: The synthesized urea-based derivatives were evaluated in a panel of kinases by differential scanning fluorescence (DSF) to investigate their selectivity profile. […] This was also reflected in the overall low selectivity score (S) throughout the series, which is determined by the ratio between the number of kinases that are stabilized above 5 °C and the total number of kinases tested (Figure ). […]
Only the number, expressed in °C, is required.

Observe how each entry below is paired with its result.
# chemical string, unit symbol, ΔTm at 10 µM
measured = [
    ("O=C(NCc1ccccc1Cl)Nc1ccc2cc1OCCOCCNc1ccn3ncc-2c3n1", "°C", 1.2),
    ("Cc1cc(Cl)ccc1CNC(=O)Nc1ccc2cc1OCCOCCNc1ccn3ncc-2c3n1", "°C", 1.8),
    ("COc1cc(CNC(=O)Nc2ccc3cc2OCCOCCNc2ccn4ncc-3c4n2)ccc1F", "°C", 0.3),
    ("Cc1ccc(F)cc1CNC(=O)Nc1ccc2cc1OCCOCCNc1ccn3ncc-2c3n1", "°C", 0.3),
    ("O=C(NCc1ccccc1C(F)(F)F)Nc1ccc2cc1OCCOCCNc1ccn3ncc-2c3n1", "°C", 3),
    ("O=C(NCc1ccc(Cl)cc1Cl)Nc1ccc2cc1OCCOCCNc1ccn3ncc-2c3n1", "°C", 1.6),
]

INPUT: Can you share its ΔTm at 10 µM? I mean this molecule: `Cc1cc(Br)ccc1CNC(=O)Nc1ccc2cc1OCCOCCNc1ccn3ncc-2c3n1`
OUTPUT: 1.8

INPUT: Let us now turn to `COc1cccc(CNC(=O)Nc2ccc3cc2OCCOCCNc2ccn4ncc-3c4n2)c1`
OUTPUT: 0.4

INPUT: Try this molecule next: `O=C(NCc1ccc(Cl)cc1F)Nc1ccc2cc1OCCOCCNc1ccn3ncc-2c3n1`
OUTPUT: 1.4

INPUT: # iterate: `CN1CCN(C(=O)Nc2ccc3cc2OCCOCCNc2ccn4ncc-3c4n2)CC1`
OUTPUT: 0.3

INPUT: Field entry: `C[C@H](NC(=O)Nc1ccc2cc1OCCOCCNc1ccn3ncc-2c3n1)c1ccccc1`
OUTPUT: 0.1

###

- target under test: STK39A (Homo sapiens, UniProt Q9UEW8)
- Construct: purchased in-house DSF kinase panel (SGC-style construct names; the trailing letter is the construct ID)
- experiment: DSF Tm panel
- Format: binding
- measurement conditions: 10 μM compound
Kindly apply the following: YES if ΔTm at 10 µM is less than 2 °C, NO in every other case.

Example cases with answers are listed next.
# molecule, group label
measured = [
    ("Cc1cc(Cl)ccc1CNC(=O)Nc1ccc2cc1OCCOCCNc1ccn3ncc-2c3n1 [compound 23]", "NO"),
    ("COc1ccccc1CNC(=O)Nc1ccc2cc1OCCOCCNc1ccn3ncc-2c3n1 [compound 29]", "YES"),
    ("COc1ccc(CNC(=O)Nc2ccc3cc2OCCOCCNc2ccn4ncc-3c4n2)cc1 [compound 31]", "YES"),
    ("CN1CCN(C(=O)Nc2ccc3cc2OCCOCCNc2ccn4ncc-3c4n2)CC1 [compound 35]", "YES"),
    ("O=C(NCc1ccccc1Cl)Nc1ccc2cc1OCCOCCNc1ccn3ncc-2c3n1 [compound 17]", "NO"),
]

INPUT: Strictly below 2 °C: is that where ΔTm at 10 µM of O=C(NCc1ccc(Cl)cc1)Nc1ccc2cc1OCCOCCNc1ccn3ncc-2c3n1 [compound 19] sits?
OUTPUT: NO

INPUT: Could you do the same for Cc1cc(Br)ccc1CNC(=O)Nc1ccc2cc1OCCOCCNc1ccn3ncc-2c3n1 [compound 24] , please?
OUTPUT: YES

INPUT: Proceed to COc1ccc(CNC(=O)Nc2ccc3cc2OCCOCCNc2ccn4ncc-3c4n2)cc1F [compound 32]
OUTPUT: YES

###

This listing pairs molecules with measured ΔTm at 10 µM.
- target under test: CAMK4A (Homo sapiens, UniProt Q16566)
- Construct: purchased in-house DSF kinase panel (SGC-style construct names; the trailing letter is the construct ID)
- Sequence (Q16566 whole entry): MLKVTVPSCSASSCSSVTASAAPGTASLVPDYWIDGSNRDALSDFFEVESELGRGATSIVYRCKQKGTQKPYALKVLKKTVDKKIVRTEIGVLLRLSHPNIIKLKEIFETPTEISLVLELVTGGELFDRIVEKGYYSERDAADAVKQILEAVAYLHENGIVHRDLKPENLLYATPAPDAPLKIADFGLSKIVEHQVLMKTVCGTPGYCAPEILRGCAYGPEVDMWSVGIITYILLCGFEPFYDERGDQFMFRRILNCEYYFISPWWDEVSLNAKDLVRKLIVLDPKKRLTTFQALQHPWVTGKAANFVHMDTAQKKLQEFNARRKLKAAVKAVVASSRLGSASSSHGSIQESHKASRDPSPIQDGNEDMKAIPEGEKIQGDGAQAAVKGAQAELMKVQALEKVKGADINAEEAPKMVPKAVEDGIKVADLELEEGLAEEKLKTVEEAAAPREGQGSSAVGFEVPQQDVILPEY
- experiment: DSF Tm panel
- Type: binding
- measurement conditions: 10 μM compound
Give me the value, and tack the unit on after it.

# molecule, observed
measured = [
    ("COc1ccc(CNC(=O)Nc2ccc3cc2OCCOCCNc2ccn4ncc-3c4n2)cc1 [compound 31]", "1.1 °C"),
]

INPUT: Tell me the measured ΔTm at 10 µM of O=C(NCc1ccc(Cl)cc1)Nc1ccc2cc1OCCOCCNc1ccn3ncc-2c3n1 [compound 19] , please.
OUTPUT: 1 °C

INPUT: Now give it for O=C(NCc1ccc(C(F)(F)F)cc1)Nc1ccc2cc1OCCOCCNc1ccn3ncc-2c3n1 [compound 28] too.
OUTPUT: 1 °C

INPUT: Now the same for CN1CCN(C(=O)Nc2ccc3cc2OCCOCCNc2ccn4ncc-3c4n2)CC1 [compound 35]
OUTPUT: 0 °C

INPUT: Continue with O=C(NCc1ccccc1Cl)Nc1ccc2cc1OCCOCCNc1ccn3ncc-2c3n1 [compound 17]
OUTPUT: 0.6 °C

###

- target under test: STK38LA (Homo sapiens, UniProt Q9Y2H1)
- Construct: purchased in-house DSF kinase panel (SGC-style construct names; the trailing letter is the construct ID)
- Sequence (Q9Y2H1 90-453): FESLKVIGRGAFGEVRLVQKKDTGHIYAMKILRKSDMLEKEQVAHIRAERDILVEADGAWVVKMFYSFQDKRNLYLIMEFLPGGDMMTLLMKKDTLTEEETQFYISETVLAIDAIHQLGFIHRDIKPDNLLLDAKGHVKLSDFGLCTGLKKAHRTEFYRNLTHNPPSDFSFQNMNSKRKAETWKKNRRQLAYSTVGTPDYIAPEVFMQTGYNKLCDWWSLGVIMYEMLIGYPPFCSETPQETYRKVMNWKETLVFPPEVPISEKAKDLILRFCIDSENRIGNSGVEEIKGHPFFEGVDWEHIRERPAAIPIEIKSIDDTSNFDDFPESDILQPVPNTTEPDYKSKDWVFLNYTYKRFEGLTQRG
- experiment: DSF Tm panel
- Type: binding
- measurement conditions: 10 μM compound
assay endpoint: ΔTm at 10 µM

# compound, target under test, assay endpoint, observed
data = [
    ("O=C(NCc1ccccc1Cl)Nc1ccc2cc1OCCOCCNc1ccn3ncc-2c3n1 [compound 17]", "STK38LA (Homo sapiens, UniProt Q9Y2H1)", "ΔTm at 10 µM", "0.7 °C"),
]

INPUT: # query: ΔTm at 10 µM | item O=C(NCc1cccc(Cl)c1)Nc1ccc2cc1OCCOCCNc1ccn3ncc-2c3n1 [compound 18] | system: STK38LA (Homo sapiens, UniProt Q9Y2H1)
OUTPUT: 1.1 °C

INPUT: Another compound: O=C(NCc1ccccc1)Nc1ccc2cc1OCCOCCNc1ccn3ncc-2c3n1 [compound 16]
OUTPUT: 0.8 °C

INPUT: Next compound up: CN1CCN(C(=O)Nc2ccc3cc2OCCOCCNc2ccn4ncc-3c4n2)CC1 [compound 35]
OUTPUT: 0.4 °C
